Listing of recorded Bliss interaction score by entry.
- Test system: B. subtilis 168;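 also: first quartile when negative (synergy) and third quartile when positive (antagonism)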
- assay.comment: Bliss interaction score (quartile over a dose matrix) (fitness difference); higher = more antagonism (negative = synergy)
- experimental.parameters: main component drawn

molecule="CC[C@H](C)[C@H](N)C1=N[C@H](C(=O)N[C@@H](CC(C)C)C(=O)N[C@H](CCC(=O)O)C(=O)N[C@H](C(=O)N[C@H]2CCCCNC(=O)[C@H](CC(N)=O)NC(=O)[C@@H](CC(=O)O)NC(=O)[C@H](Cc3cnc[nH]3)NC(=O)[C@@H](Cc3ccccc3)NC(=O)[C@H]([C@@H](C)CC)NC(=O)[C@@H](CCCN)NC2=O)[C@@H](C)CC)CS1 [Bacitracin] + C/C(=C\\C(=O)OCCCCCCCCC(=O)O)C[C@@H]1OC[C@H](C[C@@H]2O[C@H]2[C@@H](C)[C@H](C)O)[C@@H](O)[C@H]1O [Pseudomonic acid]" readout_label="Bliss interaction score" result=-0.0784

Below: the item to evaluate.
Form: Entry = CC[C@H](C)[C@H](N)C1=N[C@H](C(=O)N[C@@H](CC(C)C)C(=O)N[C@H](CCC(=O)O)C(=O)N[C@H](C(=O)N[C@H]2CCCCNC(=O)[C@H](CC(N)=O)NC(=O)[C@@H](CC(=O)O)NC(=O)[C@H](Cc3cnc[nH]3)NC(=O)[C@@H](Cc3ccccc3)NC(=O)[C@H]([C@@H](C)CC)NC(=O)[C@@H](CCCN)NC2=O)[C@@H](C)CC)CS1 [Bacitracin] + N[C@@H]1CONC1=O [CycloserineD] | System = B. subtilis 168 | Bliss interaction score = ____;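 also: first quartile when negative (synergy) and third quartile when positive (antagonism)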
0.0719
